Below, each entry is listed alongside its reported EC50.
Assayed System: UniProtKB P31645
Measurement Notes: cell-based
Result Type: EC50 (nM)

> print(dat)
                    smiles.entry    assayed.system  result.type  value.observed
1  Cl.FC(F)(F)c1cccc(N2CCNCC2)c1  UniProtKB P31645         EC50            2430
2     Cl.Cl.Clc1cccc(N2CCNCC2)c1  UniProtKB P31645         EC50            1940

---

Assayed System: hSERT (Homo sapiens, UniProt P31645)
Sequence (P31645 whole entry): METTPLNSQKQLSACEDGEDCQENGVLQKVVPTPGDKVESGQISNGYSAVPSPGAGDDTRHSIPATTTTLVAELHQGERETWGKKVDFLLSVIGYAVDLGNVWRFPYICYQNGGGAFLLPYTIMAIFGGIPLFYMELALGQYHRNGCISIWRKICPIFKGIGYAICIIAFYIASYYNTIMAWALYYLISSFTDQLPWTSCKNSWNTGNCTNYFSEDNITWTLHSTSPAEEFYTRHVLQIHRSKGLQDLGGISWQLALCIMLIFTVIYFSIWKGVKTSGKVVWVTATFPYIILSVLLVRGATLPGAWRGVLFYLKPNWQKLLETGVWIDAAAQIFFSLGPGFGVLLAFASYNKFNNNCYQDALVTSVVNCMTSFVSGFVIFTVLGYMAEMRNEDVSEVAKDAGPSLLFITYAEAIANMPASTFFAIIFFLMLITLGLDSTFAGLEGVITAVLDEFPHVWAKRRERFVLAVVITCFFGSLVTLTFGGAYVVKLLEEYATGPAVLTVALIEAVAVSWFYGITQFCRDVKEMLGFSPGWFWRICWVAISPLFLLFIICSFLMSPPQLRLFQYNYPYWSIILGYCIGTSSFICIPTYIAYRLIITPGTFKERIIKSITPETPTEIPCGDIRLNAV
Measurement Notes: cell-based
Assay type: cell-based
Applied Conditions: hSERT-expressing oocytes, bell-shaped concentration-response curve
Below, each entry is listed alongside its reported concentration at which maximal current was measured.
Result Type: concentration at which maximal current was measured (µM)

> print(dat)
                                   compound  value.observed
1  CC(N)Cc1cccc(C(F)(F)F)c1.Cl (single isomer, unassigned; (+))             100
2             Cl.FC(F)(F)c1cccc(N2CCNCC2)c1               3
3                Cl.Cl.Clc1cccc(N2CCNCC2)c1               3
4  CSc1ccc(CC(C)N)cc1.CSc1ccc(C[C@@H](C)N)cc1 (stereo not shown)               3
